# ASSAYED TARGET: T1, human GIP receptor (human) (UniProt P48546)
# T1 sequence (looked up): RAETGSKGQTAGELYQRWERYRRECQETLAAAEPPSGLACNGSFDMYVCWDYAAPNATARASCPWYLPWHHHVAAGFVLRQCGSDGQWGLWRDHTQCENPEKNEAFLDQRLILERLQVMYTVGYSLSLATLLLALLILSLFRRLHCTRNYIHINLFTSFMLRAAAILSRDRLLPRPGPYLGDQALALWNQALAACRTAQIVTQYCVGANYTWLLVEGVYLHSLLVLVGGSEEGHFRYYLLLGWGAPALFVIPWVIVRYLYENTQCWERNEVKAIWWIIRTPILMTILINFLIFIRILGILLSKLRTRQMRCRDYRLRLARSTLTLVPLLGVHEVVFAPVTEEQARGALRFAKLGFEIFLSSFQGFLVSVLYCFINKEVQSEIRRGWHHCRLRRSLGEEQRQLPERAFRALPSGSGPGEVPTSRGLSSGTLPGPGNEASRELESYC
# ASSAY PROCEDURE: cell-based or functional assay
Returns Yes if the recorded Relative cAMP EC50, nM (0.1% casein) is greater than or equal to 0.1 nM, and No otherwise.

{"columns": ["BINDER", "CATEGORY LABEL"],
 "data": [
  ["YXQGTFTSDFSXXLDKKAQXAFIEYLLEXGPSSGEPPPEGS (Lys acylated (AEEA)2-γGlu-C18 diacid; non-natural residues; C-terminal amide; synthetic construct; SITE 2: note = 2-Aminoisobutyric Acid; SITE 12: note = L-ornithine; SITE 13: note = alpha-methyl-leucine; SITE 17: note = Lysine is chemically modified through conjugation of the epsilon-amino group of the Lysine side chain with (2-[2-(2-Amino-ethoxy)-ethoxy]-acetyl)2-(gamma-Glu)) [Example 195]", "Yes"],
  ["YXQGTXTSDXSIXLDXKAQXXFIEYLIEGGPSSGEPPPSEG (synthetic construct; SITE 2: note = 2-Aminoisobutyric Acid; SITE 6: note = alpha-methyl-2-fluoro-L-phenylalanine; SITE 10: note = 3-(4-Pyridyl)-L-alanine; SITE 13: note = alpha-methyl-leucine; SITE 16: note = L-ornithine; SITE 17: note = Lysine is chemically modified through conjugation of the epsil) [Example 489]", "No"],
  ["HXQGTXTSDXXIXLDXKAQXNFIEYLLEGGPSSGEPPPE (synthetic construct; SITE 2: note = 2-Aminoisobutyric Acid; SITE 6: note = alpha-methyl-2-fluoro-L-phenylalanine; SITE 10: note = 3-(4-Pyridyl)-L-alanine; SITE 11: note = alpha-methyl-L-serine; SITE 13: note = alpha-methyl-leucine; SITE 16: note = L-ornithine; SITE 17: note = Lysine is chemically mo) [Example 478]", "Yes"],
  ["YXQGTXTSDXXILLDKKAQXAFIEYLEEGGPSSGAPPPE (synthetic construct; SITE 2: note = 2-Aminoisobutyric Acid; SITE 6: note = alpha-methyl-2-fluoro-L-phenylalanine; SITE 10: note = 3-(3-Pyridyl)-L-alanine; SITE 11: note = alpha-methyl-L-serine; SITE 17: note = Lysine is chemically modified through conjugation of the epsilon-amino group of the Lysine) [Example 465]", "Yes"],
  ["YXQGTFTSDFSXXLDKKAQXAFIEYLLEXGXSSGAPPPSGS (Aib, Orn, αMeL, 4Pal, acylated K, C-terminal amide; synthetic construct; SITE 2: note = 2-Aminoisobutyric Acid; SITE 12: note = L-ornithine; SITE 13: note = alpha-methyl-leucine; SITE 17: note = Lysine is chemically modified through conjugation of the epsilon-amino group of the Lysine side chain with (2-[2-(2-Amino-ethoxy)-ethoxy]-acetyl)2-(gamma-Glu)) [Example 183]", "No"],
  ["YXQGTFTSDFSRXLDKKAQXAFIEYLLEGGESSGAPPPSGS (Aib, αMeL; lysine acylated C18 diacid; C-terminal amide; synthetic construct; SITE 2: note = 2-Aminoisobutyric Acid; SITE 13: note = alpha-methyl-leucine; SITE 17: note = Lysine is chemically modified through conjugation of the epsilon-amino group of the Lysine side chain with (2-[2-(2-Amino-ethoxy)-ethoxy]-acetyl)-(gamma-Glu)-CO-(CH2) 16-CO2H; SITE 20: n) [Example 148]", "Yes"],
  ["YXQGTFTSDFSXXLDKKAQXAFIEYLLEGGPSSGAPPPGGT (Lys acylated AEEA-γGlu-C18 diacid; non-natural residues; C-terminal amide; synthetic construct; SITE 2: note = 2-Aminoisobutyric Acid; SITE 12: note = L-ornithine; SITE 13: note = …; SITE 17: note = Lysine is chemically modified through conjugation of the epsilon-amino group of the Lysine side chain with (2-[2-(2-Amino-ethoxy)-ethoxy]-acetyl)-(gamma-Glu)) [Example 158]", "Yes"],
  ["YXQGTXTSDXXIXLDXKAQXNFIEXLQEGGPSSGEPPPE (synthetic construct; SITE 2: note = 2-Aminoisobutyric Acid; SITE 6: note = alpha-methyl-2-fluoro-L-phenylalanine; SITE 10: note = 3-(4-Pyridyl)-L-alanine; SITE 11: note = alpha-methyl-L-serine; SITE 13: note = alpha-methyl-leucine; SITE 16: note = L-ornithine; SITE 17: note = Lysine is chemically mo) [Example 450]", "No"],
  ["YXQGTFTSDFSXXLDKKAQXAFIEWLLEGGSSSGAPPPSGS (non-natural residues; lipidated Lys AEEA-γGlu-C18 diacid; C-term amide; synthetic construct; SITE 2: note = 2-Aminoisobutyric Acid; SITE 12: note = L-ornithine; SITE 13: note = alpha-methyl-leucine; SITE 17: note = Lysine is chemically modified through conjugation of the epsilon-amino group of the Lysine side chain with (2-[2-(2-Amino-ethoxy)-ethoxy]-acetyl)-(gamma-Glu)) [Example 173]", "Yes"],
  ["YXQGTXTSDXSIXLDKKAQXAFIEYLEEGGPSSGAPPPE (synthetic construct; SITE 2: note = 2-Aminoisobutyric Acid; SITE 6: note = alpha-methyl-2-fluoro-L-phenylalanine; SITE 10: note = 4-nitro-L-phenylalanine; SITE 13: note = alpha-methyl-leucine; SITE 17: note = Lysine is chemically modified through conjugation of the epsilon-amino group of the Lysine) [Example 495]", "No"],
  ["YXQGTFTSDFSXXLDKKAQXAFIEYLLEXGESSGAPPPSGS (non-natural residues (Aib, Orn, αMeL); lipidated K; C-terminal amide; synthetic construct; SITE 2: note = 2-Aminoisobutyric Acid; SITE 12: note = L-ornithine; SITE 13: note = alpha-methyl-leucine; SITE 17: note = Lysine is chemically modified through conjugation of the epsilon-amino group of the Lysine side chain with (2-[2-(2-Amino-ethoxy)-ethoxy]-acetyl)2-(gamma-Glu)) [Example 179]", "Yes"],
  ["YXQGTFTSDFSXXLDKKAQXAFIEWLLEGGHSSGAPPPSGS (Lys acylated with AEEA-γGlu-C18 diacid; non-natural residues; C-amide; synthetic construct; SITE 2: note = 2-Aminoisobutyric Acid; SITE 12: note = L-ornithine; SITE 13: note = alpha-methyl-leucine; SITE 17: note = Lysine is chemically modified through conjugation of the epsilon-amino group of the Lysine side chain with (2-[2-(2-Amino-ethoxy)-ethoxy]-acetyl)-(gamma-Glu)) [Example 170]", "Yes"]
]}

Entry source: patent US20240270821A1
